system: Human papillomavirus type 1a protein E7 (residues 44-93); assay: small molecules binding HPV E7 44-93 – biochemical, small-molecule microarray, residues 44-93, 635 nm fluorescence, primary screen (AID 1108); conditions: fluorescence 635 nm, higher = more signal;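 further: E7 fragment applied at 1 µg/mL in TBST for 1 h at 4 C; score combines spot fluorescence with its signal to noise ratio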
Exercise: for every item that follows, state its recorded composite z-score.
One number for each entry.

{"columns": ["Compound String", "composite z-score"],
 "data": [
  ["COC(=O)c1c(CC[C@@H](CO)NC(=O)Nc2ncn[nH]2)oc(C(=O)Cc2ccccc2)c1C(=O)OC", 0.693],
  ["C#C[C@H](O[Si](C#CCCCCCC)(C(C)C)C(C)C)c1ccccc1", 0.228],
  ["COCCCNC(=O)[C@]1(Cc2ccccc2N=[N+]=[N-])N=C(c2ccc(OCCCO)cc2)O[C@@H]1c1ccccc1CN=[N+]=[N-]", 1.45]
]}

# evaluate next
query: Form field: reported composite z-score of `Cc1ccccc1/C=C/C=O`
result: -1.54

----------
assay: small molecules captured by biotinylated probe aFST – biochemical, small-molecule microarray, fluorescence 635/667, stem cell growth factor project, primary screen (AID 1086); conditions: higher = more signal;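 further: score merges 667 nm fluorescence with signal-to-noise of each printed compound spot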
Reported Metric: composite z-score
One number for each entry.

Sample answers from the record:
{"columns": ["Compound String", "composite z-score"],
 "data": [
  ["COCCOC(=O)N1C(=O)[C@@]2(c3cc(C#CC4=CCCCC4)ccc31)[C@H](c1ccc(OCCO)cc1)N1[C@H](c3ccccc3)[C@H](c3ccccc3)OC(=O)[C@H]1[C@@H]2C(=O)Nc1nc2ccccc2s1", 0.241],
  ["[N-]=[N+]=NCc1ccccc1C[C@]1(C(=O)N2CCOCC2)N=C(c2ccc(OCCCO)cc2)O[C@H]1c1ccccc1", 0.912],
  ["COC(=O)c1c(CC[C@@H](CO)NC(=O)Nc2ncn[nH]2)oc(C(=O)Cc2ccccc2)c1C(=O)OC", 0.524],
  ["COCCCNC(=O)[C@@]1(Sc2ccc(C)cc2)CC(=O)N(Cc2ccccc2)[C@@H]1c1ccc(CO)cc1", -0.217],
  ["COCCCNC(=O)[C@@]1(C)c2ccccc2C(=O)N(Cc2ccccc2)[C@H]1c1ccc(CO)cc1", -0.353],
  ["CCCNC(=O)[C@@]1(C)c2ccccc2C(=O)N(C(C)C)[C@H]1c1ccc(CO)cc1", -0.35],
  ["NC(=O)[C@@]1(CCS(=O)(=O)c2ccccc2)N=C(c2ccc(OCCCO)cc2)O[C@H]1c1ccccc1", 0.893]
]}

# evaluate next
query: Form field: reported composite z-score of `COCCOC(=O)N1C(=O)[C@@]2(c3cc(C#CC4(O)CCCCCC4)ccc31)[C@H](c1ccc(O)cc1)N1[C@H](c3ccccc3)[C@H](c3ccccc3)OC(=O)[C@H]1[C@@H]2C(=O)N1CCc2cc(OC)c(OC)cc2C1`
result: -0.538

----------
assay: hepatitis C replication reporter changes, two-sided – Huh7 cells, luciferase reporter, HCV replication inhibitor project, primary screen (AID 1109); details: Huh7 HCV replicon luciferase reporter, 48 h; higher = more signal;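 further: huh7 hepatoma cells harbouring a luciferase neomycin HCV replicon reporter; luciferase luminescence as measure of HCV replicon replication; test concentration not given here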
Reported Metric: z-score

{"columns": ["Compound String", "Test Result"],
 "data": [
  ["COCCCNC(=O)[C@]1(Cc2ccccc2N=[N+]=[N-])N=C(c2ccc(OCCCO)cc2)O[C@@H]1c1ccccc1CN=[N+]=[N-]", -3.09]
]}

Answer for every listed entry: what is its z-score? The entries follow.
1. COc1ccc([Si](C)(C)[C@H]2[C@H](CC(=O)N(CCO)Cc3ccccc3)O[C@@]3(C(=O)N(Cc4cccc(N5C(=O)c6cccc7cccc5c67)c4)c4ccccc43)[C@@H]2C)cc1
2. CCCNC(=O)[C@@]1(C)c2ccccc2C(=O)N(Cc2cc(C(F)(F)F)cc(C(F)(F)F)c2)[C@H]1c1ccc(CO)cc1

result:
-4.25
-1.16

Cited source for all entries: PubChem BioAssay
